# key: entry, value: Anti-CD28 Fab signal (phage binding ELISA)
# study_target: T1, Anti-CD28 Fab (SEQ ID NOs: 696, 697)
# T1 construct: In the phage ELISA the Fab was biotinylated and captured on neutravidin coated plates
# T1 sequence (VH, as listed by the source, chain 1 of 2): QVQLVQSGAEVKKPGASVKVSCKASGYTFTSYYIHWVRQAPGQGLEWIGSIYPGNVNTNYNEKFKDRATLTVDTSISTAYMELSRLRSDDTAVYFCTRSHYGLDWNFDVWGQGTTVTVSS
# T1 sequence (VL, as listed by the source, chain 2 of 2): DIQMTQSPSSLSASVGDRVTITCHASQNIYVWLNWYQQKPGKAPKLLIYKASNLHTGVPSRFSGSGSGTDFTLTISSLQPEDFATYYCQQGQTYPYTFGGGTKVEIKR
# procedure_details: phage ELISA; clonal phage supernatant on biotinylated anti-CD28 Fab captured on neutravidin plate, anti-M13-HRP detection
Just the number, please, no unit after it.

binder	observed_measurement
TCSAGATYTWSKCF [Phage-1386 peptide (SEQ ID NO: 1682)]	2.15
TCAAGATYAWPYCV [Phage-1376 peptide (SEQ ID NO: 1672)]	2.21
TCSAGATYTWPWCF [Phage-1388 peptide (SEQ ID NO: 1684)]	2.14
NCSAGATYPWPLCL [Phage-1381 peptide (SEQ ID NO: 1677)]	2.17

QUERY: Using the record for LCNAGATYSWPTCL [Phage-1387 peptide (SEQ ID NO: 1683)] , report its Anti-CD28 Fab signal (phage binding ELISA).
RESULT: 2.14

QUERY: Using the record for TCAAGAHWPWPTCF [Phage-1385 peptide (SEQ ID NO: 1681)] , report its Anti-CD28 Fab signal (phage binding ELISA).
RESULT: 2.15

QUERY: Using the record for TCSAGASNKLSLCL [Phage-1378 peptide (SEQ ID NO: 1674)] , report its Anti-CD28 Fab signal (phage binding ELISA).
RESULT: 2.18

QUERY: Using the record for LCAAGAHYPWPQCL [Phage-1384 peptide (SEQ ID NO: 1680)] , report its Anti-CD28 Fab signal (phage binding ELISA).
RESULT: 2.15
